Assay: Example 4: dose response of FKBP constructs 160-255, Ec50, Ec90 and fold change (raw and normalized to mCherry)
Assay type: cell-based
Details: fold change during initial analysis
Would you kindly list FC (fold change) for each of these molecules?

In plain terms, FKBP-190 (protein, Description of sequence: Construct Name: FKBP-190; Mutation(s): Q72R Q84E A117W V85R DRD M54A F129T) HCPIKSRKGDVLHAHYTGKLEDGTEFDSSLPRNQPFVFSLGTGERIKGWDQGLLGMCEGEKRKLVIPSELGYGERGWPPKIPGGATLVTEVELLKIER has a documented FC (fold change) of 0.9

In plain terms, FKBP-172 (protein, Description of sequence: Construct Name: FKBP-172; Mutation(s): Q72R Q84E A117W DRD M54A M96W) HCPIKSRKGDVLHAHYTGKLEDGTEFDSSLPRNQPFVFSLGTGEVIKGWDQGLLGWCEGEKRKLVIPSELGYGERGWPPKIPGGATLVFEVELLKIER has a documented FC (fold change) of 63.1

// data source = patent US20250186614A1
